biological target: T1, full length recombinant human 2N4R tau (amino acids 1-441) (human, UniProt P10636 1-758); test: SPR Biacore SCK, IgG on Protein A, tau analyte
T1 construct: Bought (rPeptide); recombinant, non-phosphorylated; also called recombinant tau
T1 sequence (P10636 other isoform, or with tags, fused parts or gaps limits assumed): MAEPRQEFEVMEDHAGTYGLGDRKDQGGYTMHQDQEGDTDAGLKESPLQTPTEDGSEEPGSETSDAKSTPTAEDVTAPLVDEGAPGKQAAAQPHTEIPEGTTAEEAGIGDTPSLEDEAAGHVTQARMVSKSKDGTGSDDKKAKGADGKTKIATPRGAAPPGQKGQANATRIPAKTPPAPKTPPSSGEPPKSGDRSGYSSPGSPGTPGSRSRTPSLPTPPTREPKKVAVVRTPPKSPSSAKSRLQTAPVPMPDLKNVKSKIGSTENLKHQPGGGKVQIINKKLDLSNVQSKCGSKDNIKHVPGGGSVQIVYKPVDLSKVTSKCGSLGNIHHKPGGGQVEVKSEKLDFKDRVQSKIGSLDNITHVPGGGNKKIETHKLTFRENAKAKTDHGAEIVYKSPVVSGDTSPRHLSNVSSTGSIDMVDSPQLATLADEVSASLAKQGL
So I've got a bunch of binders here, and I need their kon values.
Numeric answer only, unit M⁻¹ s⁻¹ assumed.

Can you share its kon? I mean this binder: Clone 23 (VH3Vκ2), humanised variant of clone #28, human IgG1 (antibody, V domains shown, also called VH3VK2) VH: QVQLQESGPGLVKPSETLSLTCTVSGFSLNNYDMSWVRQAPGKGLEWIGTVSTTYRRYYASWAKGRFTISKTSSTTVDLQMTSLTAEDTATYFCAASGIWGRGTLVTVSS VL: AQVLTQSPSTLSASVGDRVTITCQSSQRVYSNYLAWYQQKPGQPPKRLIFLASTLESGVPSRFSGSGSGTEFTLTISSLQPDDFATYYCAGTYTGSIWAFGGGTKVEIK
49400

What measured kon goes with Clone 15 (VH1Vκ2), humanised variant of clone #28, human IgG1 (antibody, V domains shown, also called VH1VK2) VH: QSLQESGGGLVKPSETLSLTCTVSGFSLNNYDMSWVRQAPGKGLEWIGTVSTTYRRYYASWAKGRFTISKTSSTTVDLKMTSLTAEDTATYFCAASGIWGRGTLVTVSS VL: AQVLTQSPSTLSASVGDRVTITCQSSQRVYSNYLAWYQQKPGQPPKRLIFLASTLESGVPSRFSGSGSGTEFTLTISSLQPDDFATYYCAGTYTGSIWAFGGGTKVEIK ?
66800

Please look up its kon: Clone 20 (VH2Vκ4), humanised variant of clone #28, human IgG1 (antibody, V domains shown, also called VH2VK4) VH: QSLQESGPGLVKPSETLSLTCTVSGFSLNNYDMSWVRQAPGKGLEWIGTVSTTYRRYYASWAKGRFTISKTSSTTVDLQMTSLTAEDTATYFCAASGIWGRGTLVTVSS VL: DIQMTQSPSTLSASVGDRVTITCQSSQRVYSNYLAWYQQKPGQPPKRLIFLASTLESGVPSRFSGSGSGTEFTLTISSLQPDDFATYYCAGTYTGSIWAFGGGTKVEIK
61500
